# procedure-summary: physchem
# stated-conditions: octanol/water
Documented logD across a set of compounds
Please respond with just the number, no unit label.

{"columns": ["smiles-record", "logD"],
 "data": [
  ["N#Cc1ccc(Oc2ccc3nc(OCCN4CCCCC4)ccc3c2)cc1", 3.5]
]}

From here, focus on the item given below.
input: Return reported logD; argument: `N#Cc1ccc(Oc2ccc3nc(OCC(=O)N4CCNC(=O)C4)ccc3c2)cc1`
output: 3.1

---

# procedure-summary: Drug concentration in brain of monoiodoacetate-induced acute Sprague-Dawley rat model of osteoarthritis at 30 mg/kg, po administered for 5 days and measured after 15 mins
# Format: ADME, organism-based
# stated-conditions: time 5 day, read-out: Ct
quantity: concentration at 120 h (ng/mL)
# unit: ng/mL | format: bare number

input: What value of concentration at 120 h has been recorded for this entry: `O=C(c1ccc2cc(Oc3ccc(C(F)(F)F)cn3)ccc2n1)N1CC[C@@H](F)C1`
output: 10800

---

# procedure-summary: physchem
# stated-conditions: octanol/water
Decide using logD: a value greater than or equal to 3 is 1, a smaller one is 0.

{"columns": ["smiles-record", "label"],
 "data": [
  ["O=C(c1ccc2cc(Oc3cc(C(F)(F)F)ccn3)ccc2n1)N1CCNCC1", 1],
  ["O=C(c1ccc2cc(Oc3ccc(C(F)(F)F)cn3)ccc2n1)N1CCNCC1", 1],
  ["O=C(c1ccc2cc(Oc3ccc(C(F)F)cn3)ccc2n1)N1CCNCC1", 0],
  ["O=C(c1ccc2cc(Oc3ncc(C(F)(F)F)cn3)ccc2n1)N1CCNCC1", 0]
]}

input: logD >= 3 for `O=C(c1ccc2cc(Oc3ccc(OC(F)(F)F)cn3)ccc2n1)N1CCNCC1` ?
output: 1

input: Decide: logD of `N#Cc1ccc(Oc2ccc3c(ccc(=O)n3CCN3CCCCC3)c2)cc1` >= 3?
output: 1

input: Please indicate if the recorded logD for `NC(=O)CNC(=O)COc1ccc2cc(Oc3ccccn3)ccc2n1` meets or exceeds 3.
output: 0

input: logD >= 3 for `O=C(c1ccc2cc(Oc3ccc(S(=O)(=O)C(F)(F)F)cc3)ccc2n1)N1CCNCC1` ?
output: 1

input: Please indicate if the recorded logD for `CN1CCN(C(=O)c2ccc3cc(Oc4ccccn4)ccc3n2)CC1` meets or exceeds 3.
output: 0

input: Has `O=C(COc1ccc2cc(Oc3ccccn3)ccc2n1)N1CCCCC1` a recorded logD greater than or equal to 3?
output: 1

input: Check if logD >= 3 (inclusive). Item: `O=C(COc1ccc2cc(Oc3ccccn3)ccc2n1)N1CCNCC1`
output: 0

---

# procedure-summary: Drug concentration in brain of monoiodoacetate-induced chronic Sprague-Dawley rat model of osteoarthritis at 0.3 mg/kg, po administered twice daily for 5 days
# Assay type: ADME, organism-based
# stated-conditions: time 5 day, read-out: Ct
quantity: concentration at 120 h (ng/mL)
# number only, unit ng/mL dropped from output

input: Which concentration at 120 h is reported for this molecule? `O=C(c1ccc2cc(Oc3ccc(C(F)(F)F)cn3)ccc2n1)N1CC[C@@H](F)C1`
output: 110

---

# procedure-summary: Drug concentration in brain of monoiodoacetate-induced chronic Sprague-Dawley rat model of osteoarthritis at 3 mg/kg, po administered twice daily for 5 days
# Type: ADME, organism-based
# stated-conditions: time 5 day, read-out: Ct
quantity: concentration at 120 h (ng/mL)
Reply with just the number (in ng/mL).

input: What concentration at 120 h value was documented for this compound, `O=C(c1ccc2cc(Oc3ccc(C(F)(F)F)cn3)ccc2n1)N1CC[C@@H](F)C1` ?
output: 1140
